Quick list: MIC per entry.
- System: Staphylococcus aureus
- Protocol: Antibacterial activity against Staphylococcus aureus after 24 hr by p-iodonitrotetrazolium assay
- Assay type: functional
Number in µM, nothing else.

Consider the compound C=C(C)C1CC2=C(O1)C(=O)c1ccccc1C2=O (stereo not drawn) [DEHYDROISO-ALPHA-LAPACHONE] tested on Staphylococcus aureus; state its MIC.
326

Consider the compound C=C(C)c1cc2c(o1)C(=O)c1ccccc1C2=O tested on Staphylococcus aureus; state its MIC.
328

Consider the compound CC1(C)CCC2=C(O1)c1ccccc1C(=O)C2=O tested on Staphylococcus aureus; state its MIC.
161

Continuing:
Consider the compound CC(C)(O[N+](=O)[O-])C1CC2=C(O1)C(=O)c1ccccc1C2=O (centres undefined) tested on Staphylococcus aureus; state its MIC.
272

Consider the compound CC(C)=CCC1(O)C(=O)c2ccccc2C1=O tested on Staphylococcus aureus; state its MIC.
240

Consider the compound CC(=O)c1cc2c(o1)C(=O)c1ccccc1C2=O tested on Staphylococcus aureus; state its MIC.
326
